Kindly supply the reported IC50 values for the records listed here.
tgt: CRAC ion channel (Rattus norvegicus, UniProt Q5M848)
Sequence (Q5M848 whole entry): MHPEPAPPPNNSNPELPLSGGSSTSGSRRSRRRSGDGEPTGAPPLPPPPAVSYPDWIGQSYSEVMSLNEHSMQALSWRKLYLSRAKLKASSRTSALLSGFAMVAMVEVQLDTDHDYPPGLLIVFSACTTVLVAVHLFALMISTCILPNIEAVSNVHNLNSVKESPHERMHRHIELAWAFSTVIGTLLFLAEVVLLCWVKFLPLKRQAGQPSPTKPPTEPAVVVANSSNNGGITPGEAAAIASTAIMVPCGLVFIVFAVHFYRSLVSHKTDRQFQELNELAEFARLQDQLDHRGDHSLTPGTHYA
Sequence (P84903 23-685, further chain): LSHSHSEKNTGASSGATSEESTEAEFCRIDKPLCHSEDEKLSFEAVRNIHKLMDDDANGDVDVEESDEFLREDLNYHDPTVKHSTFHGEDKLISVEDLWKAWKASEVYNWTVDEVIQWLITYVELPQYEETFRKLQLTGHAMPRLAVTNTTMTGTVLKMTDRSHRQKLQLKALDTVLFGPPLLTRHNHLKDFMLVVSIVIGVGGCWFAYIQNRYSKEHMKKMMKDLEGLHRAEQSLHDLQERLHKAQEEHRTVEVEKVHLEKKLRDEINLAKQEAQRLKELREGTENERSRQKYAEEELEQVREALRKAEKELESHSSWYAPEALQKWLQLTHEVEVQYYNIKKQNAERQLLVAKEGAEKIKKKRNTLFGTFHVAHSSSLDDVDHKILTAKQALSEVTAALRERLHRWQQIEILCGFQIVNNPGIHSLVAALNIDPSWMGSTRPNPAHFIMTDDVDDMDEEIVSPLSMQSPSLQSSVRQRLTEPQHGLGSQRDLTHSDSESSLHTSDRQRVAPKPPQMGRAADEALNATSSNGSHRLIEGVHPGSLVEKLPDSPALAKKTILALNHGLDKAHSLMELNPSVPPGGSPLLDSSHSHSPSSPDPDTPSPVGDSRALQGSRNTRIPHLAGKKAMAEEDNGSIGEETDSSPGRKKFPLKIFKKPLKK
experiment_notes: Patch clamp inhibition of ICRAC current in RBL cells
Assay type: cell-based
measurement_setup: whole-cell patch clamp, read-out: IC50 (concentration which inhibits 50% of the ICRAC current)
Answers are plain numbers, in nM.

Lab note: each compound below needs its IC50 filled in.
1. COc1ccc(Cl)cc1-c1ccc(NC(=O)c2cc(F)c(F)cc2F)cc1
2. Cc1nnsc1C(=O)Nc1ccc(-c2cc(C(F)(F)F)ccc2Cl)cc1
3. COc1ccc(OC)c(-c2ccc(NC(=O)c3cccc(F)c3F)cc2)c1

[reply]
[300, 400, 100]
